Measured IC50, cell viability, MCF7/PRLR cells, listed per entry for reference.
Biological target: T1, human prolactin receptor (PRLR) (human, UniProt P16471 25-622)
T1 sequence: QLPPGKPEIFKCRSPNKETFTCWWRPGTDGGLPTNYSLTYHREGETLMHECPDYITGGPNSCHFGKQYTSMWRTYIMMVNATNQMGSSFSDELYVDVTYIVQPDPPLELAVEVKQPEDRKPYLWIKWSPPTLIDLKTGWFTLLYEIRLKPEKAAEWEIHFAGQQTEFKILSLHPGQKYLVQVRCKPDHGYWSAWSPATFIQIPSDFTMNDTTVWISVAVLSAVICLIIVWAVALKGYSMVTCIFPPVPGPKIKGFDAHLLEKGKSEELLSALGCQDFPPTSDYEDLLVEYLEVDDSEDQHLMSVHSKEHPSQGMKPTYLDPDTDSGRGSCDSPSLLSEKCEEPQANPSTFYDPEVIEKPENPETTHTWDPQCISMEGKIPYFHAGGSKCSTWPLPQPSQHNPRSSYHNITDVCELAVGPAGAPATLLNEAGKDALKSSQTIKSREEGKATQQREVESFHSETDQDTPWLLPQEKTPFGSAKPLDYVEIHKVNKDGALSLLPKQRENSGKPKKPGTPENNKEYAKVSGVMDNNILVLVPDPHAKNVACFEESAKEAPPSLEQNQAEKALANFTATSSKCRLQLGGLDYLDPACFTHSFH
Assay: cell-based or functional assay

{"binder": "H1H6953N-DM1 (antibody, human IgG1, V domains shown, DM1 conjugated through SMCC linker; attachment residues not stated) VH: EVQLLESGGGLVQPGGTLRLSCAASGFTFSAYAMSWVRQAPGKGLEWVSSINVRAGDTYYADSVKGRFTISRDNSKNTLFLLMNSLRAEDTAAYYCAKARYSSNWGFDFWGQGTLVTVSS VL: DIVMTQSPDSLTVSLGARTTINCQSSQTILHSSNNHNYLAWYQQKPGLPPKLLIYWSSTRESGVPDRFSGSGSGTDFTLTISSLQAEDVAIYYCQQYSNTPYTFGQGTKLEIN", "IC50, cell viability, MCF7/PRLR cells / nM": 0.29}
{"binder": "H1H6975N-DM1 (antibody, human IgG1, V domains shown, DM1 conjugated through SMCC linker; attachment residues not stated) VH: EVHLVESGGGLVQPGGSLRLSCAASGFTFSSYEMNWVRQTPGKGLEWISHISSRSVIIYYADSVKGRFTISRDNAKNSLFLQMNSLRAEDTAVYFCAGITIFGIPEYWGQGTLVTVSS VL: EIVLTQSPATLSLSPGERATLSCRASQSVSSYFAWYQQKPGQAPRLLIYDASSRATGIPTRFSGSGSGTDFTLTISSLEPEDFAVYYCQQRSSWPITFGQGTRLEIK", "IC50, cell viability, MCF7/PRLR cells / nM": 0.49}
{"binder": "H1H6793P-DM1 (antibody, human IgG1, V domains shown, DM1 conjugated through SMCC linker; attachment residues not stated) VH: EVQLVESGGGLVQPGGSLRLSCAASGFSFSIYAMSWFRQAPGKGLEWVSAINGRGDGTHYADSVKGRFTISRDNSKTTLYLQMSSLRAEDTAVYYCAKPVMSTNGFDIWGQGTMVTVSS VL: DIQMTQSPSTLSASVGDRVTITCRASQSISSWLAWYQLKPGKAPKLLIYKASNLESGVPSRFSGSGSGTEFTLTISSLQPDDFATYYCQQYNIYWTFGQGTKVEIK", "IC50, cell viability, MCF7/PRLR cells / nM": 0.54}
